# IC50 listing for each entry below
System Tested: PSMA-expressing C4-2 cells (Homo sapiens)
Construct: PSMA-expressing C4-2 cells (ATCC, Cat. No. CRL-3314) were cultured in RPMI-1640; host or cells: C4-2 cells
Sequence (Q04609 whole entry): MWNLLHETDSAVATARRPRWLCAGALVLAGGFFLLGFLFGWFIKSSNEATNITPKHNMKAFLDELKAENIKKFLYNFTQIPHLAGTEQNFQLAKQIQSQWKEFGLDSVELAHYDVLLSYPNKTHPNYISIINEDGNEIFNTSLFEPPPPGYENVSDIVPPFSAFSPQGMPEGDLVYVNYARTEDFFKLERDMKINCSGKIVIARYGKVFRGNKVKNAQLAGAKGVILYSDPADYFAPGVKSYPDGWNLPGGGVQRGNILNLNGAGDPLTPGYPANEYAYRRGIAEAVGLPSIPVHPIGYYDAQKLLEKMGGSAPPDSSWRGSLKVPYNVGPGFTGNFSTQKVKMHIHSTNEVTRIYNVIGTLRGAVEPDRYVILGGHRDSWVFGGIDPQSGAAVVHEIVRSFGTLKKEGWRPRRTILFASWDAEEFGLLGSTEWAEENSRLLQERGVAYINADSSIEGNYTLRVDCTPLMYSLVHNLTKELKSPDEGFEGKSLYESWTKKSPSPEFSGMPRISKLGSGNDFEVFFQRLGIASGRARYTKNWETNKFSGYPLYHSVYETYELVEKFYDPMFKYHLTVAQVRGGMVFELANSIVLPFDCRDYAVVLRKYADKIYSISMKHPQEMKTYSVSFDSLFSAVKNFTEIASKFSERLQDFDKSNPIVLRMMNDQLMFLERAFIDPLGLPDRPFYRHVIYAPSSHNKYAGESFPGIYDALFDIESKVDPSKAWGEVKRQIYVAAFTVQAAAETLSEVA
Procedure Details: FACS binding assay (competition with 50 nM PSM-0183)
Assay Setup: FACS binding, C4-2 cells, competition with 50 nM PSM-0183; category; read-out: pIC50 [C4-2] CAT (converted)
Numbered stars: 1 amine (or outer) side, 2 acyl side, 3 side chain; on linkers, the order of the positions; unused ones are H or OH. Bridge positions count the residues as written; N and C are the ends. Square brackets hold non-standard residues; d marks the D form. Peptide text beside a SMILES is read from it. * marks the point of attachment. X7 = O=C(O)CN1CCN(CC(=O)O)CCN(CC(=O)NC2CCN(CC(=O)*)CC2)CCN(CC(=O)O)CC1; X3 = O=C(O)CN1CCN(CC(=O)O)CCN(CC(=O)NCCCOCCOCCOCCCN*)CCN(CC(=O)O)CC1; DOTA = O=C(O)CN1CCN(CC(=O)O)CCN(CC(=O)*)CCN(CC(=O)O)CC1; Phe(4-Cl) = N[C@@H](Cc1ccc(Cl)cc1)C(=O)O; Propanoyl(3-SO2NH2) = NS(=O)(=O)CCC(=O)*; Arg(Me) = CNC(=N)NCCC[C@H](N)C(=O)O; Dap(CONH2) = NC(=O)NC[C@H](N)C(=O)O; Ethylenediamine = C(CN[*:2])N[*:1]; Lys(Me2) = CN(C)CCCC[C@H](N)C(=O)O; X1 = O=C(CC1CCN([*:1])CC1)[*:2]; Cit = NC(=O)NCCC[C@H](N)C(=O)O; Suc = O=C(CCC(=O)[*:2])[*:1]; Tle = CC(C)(C)[C@H](N)C(=O)O; Propanoyl(3-OH) = O=C(CCO)*; NHCH2tBu = CC(C)(C)CN*; Aib = CC(C)(N)C(=O)O
Readout Label: IC50

Compound	Readout Label	Val
C[C@@H](O)[C@H](NC(=O)[C@@H](NC(=O)[C@@H]1CSSC[C@H](NC(=O)[C@H](Cc2ccccc2)NC(=O)C(C)(C)NC(=O)[C@@H](NC(=O)CCC(=O)NCCCOCCOCCOCCCNC(=O)CN2CCN(CC(=O)O)CCN(CC(=O)O)CCN(CC(=O)O)CC2)[C@@H](C)O)C(=O)N[C@@H](CCCCN)C(=O)N[C@@H](CCCNC(N)=O)C(=O)NC(C)(C)C(=O)N[C@@H](CC(N)=O)C(=O)N1)C(C)(C)C)C(N)=O [PSM-0234] ({X3-Suc}-T[Aib]FCK[Cit][Aib]NC[Tle]T-NH2; disulfide 4-9)	IC50	200 to 1260 nM
CC(=O)N[C@H](C(=O)NC(C)(C)C(=O)N[C@@H](Cc1ccccc1)C(=O)N[C@H]1CSSC[C@@H](C(=O)N[C@H](C(=O)N[C@H](C(=O)N[C@@H](CC(=O)O)C(N)=O)[C@@H](C)O)C(C)(C)C)NC(=O)[C@H](CC(N)=O)NC(=O)[C@H](C)NC(=O)[C@H](CNC(N)=O)NC(=O)[C@H](CCCCN)NC1=O)[C@@H](C)O [PSM-0180] (Ac-T[Aib]FCK[Dap(CONH2)]ANC[Tle]TD-NH2; disulfide 4-9)	IC50	< 200 nM
C[C@@H](O)[C@H](NC(=O)[C@@H](NC(=O)[C@@H]1CSSC[C@H](NC(=O)[C@H](Cc2ccc(Cl)cc2)NC(=O)C(C)(C)NC(=O)CCS(N)(=O)=O)C(=O)N[C@@H](CCCCN)C(=O)N[C@@H](CCCNC(=N)N)C(=O)N[C@@H](CCCCNC(=O)CN2CCC(NC(=O)CN3CCN(CC(=O)O)CCN(CC(=O)O)CCN(CC(=O)O)CC3)CC2)C(=O)N[C@@H](CC(N)=O)C(=O)N1)C(C)(C)C)C(N)=O [PSM-0188] ({Propanoyl(3-SO2NH2)}-[Aib][Phe(4-Cl)]CKRK(X7)NC[Tle]T-NH2; disulfide 3-8)	IC50	< 200 nM
CNC(=N)NCCC[C@@H]1NC(=O)[C@H](CCCCN(C)C)NC(=O)[C@@H](NC(=O)[C@H](Cc2ccc(Cl)cc2)NC(=O)C(C)(C)NC(=O)[C@@H](NC(=O)CC2CCN(C(=O)CN3CCN(CC(=O)O)CCN(CC(=O)O)CCN(CC(=O)O)CC3)CC2)[C@@H](C)O)CSSC[C@@H](C(=O)N[C@H](C(=O)N[C@H](C(N)=O)[C@@H](C)O)C(C)(C)C)NC(=O)[C@H](CC(N)=O)NC(=O)C(C)(C)NC1=O [PSM-0203] ({DOTA}-[X1]T[Aib][Phe(4-Cl)]C[Lys(Me2)][Arg(Me)][Aib]NC[Tle]T-NH2; disulfide 5-10)	IC50	< 200 nM
C[C@@H](O)[C@H](NC(=O)[C@@H](NC(=O)[C@@H]1CSSC[C@H](NC(=O)[C@H](Cc2ccc(Cl)cc2)NC(=O)C(C)(C)NC(=O)CCO)C(=O)N[C@@H](CCCCN)C(=O)N[C@@H](CCCNC(=N)N)C(=O)NC(C)(C)C(=O)N[C@@H](CC(N)=O)C(=O)N1)C(C)(C)C)C(=O)N[C@H](CCCCNC(=O)CN1CCN(CC(=O)O)CCN(CC(=O)O)CCN(CC(=O)O)CC1)C(N)=O [PSM-0267] ({Propanoyl(3-OH)}-[Aib][Phe(4-Cl)]CKR[Aib]NC[Tle]T[dK](DOTA)-NH2; disulfide 3-8)	IC50	< 200 nM
CC(=O)N[C@H](C(=O)NC(C)(C)C(=O)N[C@@H](Cc1ccccc1)C(=O)N[C@H]1CSSC[C@@H](C(=O)NCC(C)(C)C)NC(=O)[C@H](CC(N)=O)NC(=O)C(C)(C)NC(=O)[C@H](CCCNC(=N)N)NC(=O)[C@H](CCCCN)NC1=O)[C@@H](C)O [PSM-0208] (Ac-T[Aib]FCKR[Aib]NC-NHCH2tBu; disulfide 4-9)	IC50	200 to 1260 nM
C[C@@H](O)[C@H](NC(=O)CN1CCN(CC(=O)O)CCN(CC(=O)O)CCN(CC(=O)O)CC1)C(=O)NC(C)(C)C(=O)N[C@@H](Cc1ccccc1)C(=O)N[C@H]1CSSC[C@@H](C(=O)N[C@H](C(=O)NCCN)C(C)(C)C)NC(=O)[C@H](CC(N)=O)NC(=O)C(C)(C)NC(=O)[C@H](CCCNC(=N)N)NC(=O)[C@H](CCCCN)NC1=O [PSM-0199] ({DOTA}-T[Aib]FCKR[Aib]NC[Tle]-Ethylenediamine; disulfide 4-9)	IC50	< 200 nM
CC(=O)N[C@H](C(=O)NC(C)(C)C(=O)N[C@@H](Cc1ccccc1)C(=O)N[C@H]1CSSC[C@@H](C(=O)N[C@H](C(=O)N[C@H](C(N)=O)[C@@H](C)O)C(C)(C)C)NC(=O)[C@H](CC(N)=O)NC(=O)C(C)(C)NC(=O)[C@H](CCCNC(=N)N)NC(=O)[C@H](CCCCN)NC1=O)[C@@H](C)O [PSM-0178] (Ac-T[Aib]FCKR[Aib]NC[Tle]T-NH2; disulfide 4-9)	IC50	< 200 nM
CC(=O)NC(=N)NCCC[C@@H]1NC(=O)[C@H](CCCCN)NC(=O)[C@@H](NC(=O)[C@H](Cc2ccc(Cl)cc2)NC(=O)C(C)(C)NC(=O)CC2CCN(C(=O)CN3CCN(CC(=O)O)CCN(CC(=O)O)CCN(CC(=O)O)CC3)CC2)CSSC[C@@H](C(=O)N[C@H](C(=O)N[C@H](C(N)=O)[C@@H](C)O)C(C)(C)C)NC(=O)[C@H](CC(N)=O)NC(=O)C(C)(C)NC1=O [PSM-0223] ({DOTA}-[X1][Aib][Phe(4-Cl)]CKR(Ac)[Aib]NC[Tle]T-NH2; disulfide 4-9)	IC50	200 to 1260 nM

The measured values listed here are drawn from patent US20260083865A1.
